Protocol notes: chemical genetic growth profiling, strain panel (AID 1159580);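 also: tested at 20 µM; growth read once vehicle control cultures reached saturation at 30 °C; 1 = growth at the plate median or of vehicle wells; lower values mean less growth of the strain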
Settings: S. cerevisiae deletion strains, growth OD, locus YJL134W, strain LCB3
In all, about 5,500 compounds went through this assay and about 2,000 (36%) were called active. Roughly 18% stayed inconclusive and do not appear here. Rule as the data show it: active = normalized growth mostly below about 0.91 (no sharp cut-off); inconclusive = no clear call, values can overlap the other calls; inactive = mostly above about 0.92. Some of the results follow.
Labels: 1 (active), 0 (inactive)

Nc1c2c(nc3ccccc13)CCCC2O (configuration not stated) :: 0
CCOP(=S)(OCC)Oc1nc(Cl)c(Cl)cc1Cl :: 0
CC(=O)NC(C(=O)O)C(C)(C)SN=O (configuration not stated) :: 0
CC(=O)NCc1c(I)c(NC(C)=O)c(I)c(C(=O)O)c1I :: 0
CCCCCCCCCCCC[C@H](C(=O)O)[C@@H](C)C(=O)O :: 0
Cc1cc(O)c2c(c1)Cc1cccc(O)c1C2=O :: 0
O=c1[nH]cc(F)c(=O)[nH]1 :: 0
N[C@H](C(=O)O)[C@@H]1CC(Cl)=NO1 :: 1
CCOP(=S)(OCC)Oc1cc(C)nc(C(C)C)n1 :: 0
O=C1c2c(O)cccc2Cc2cccc(O)c21 :: 0
N#CC(O[C@@H]1O[C@H](CO[C@@H]2O[C@H](CO)[C@@H](O)[C@H](O)[C@H]2O)[C@@H](O)[C@H](O)[C@H]1O)c1ccccc1 (some centres not stated) :: 0
O=C(O)/C=C1\CCCc2ccccc2C1O (configuration not stated) :: 0

* * *

Each entry below carries its reported normalized growth.
Protocol notes: chemical genetic growth profiling, strain panel (AID 1159580);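 also: tested at 20 µM; growth read once vehicle control cultures reached saturation at 30 °C; 1 = growth at the plate median or of vehicle wells; lower values mean less growth of the strain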
Settings: S. cerevisiae deletion strains, growth OD, locus YNL209W, strain ssb2, hits give low values
In all, about 5,500 compounds went through this assay and about 2,000 (36%) were called active. Not shown: some 18% with an inconclusive outcome. Some of the results follow.
Observed property: normalized growth

COc1ccc2c3c([nH]c2c1)C(C)=NCC3 :: 1
COC1=C[C@@H]2[C@@H]3Cc4ccc(OC)c(O)c4[C@]2(CCN3C)CC1=O :: 1.01
Nc1c2c(nc3ccccc13)CCCC2 :: 1.01
CCOc1ccc2nc3cc(N)ccc3c(N)c2c1 :: 0.53
COc1cccc2c1C(=O)c1c(O)c3c(c(O)c1C2=O)C[C@@](O)(C(=O)CO)C[C@@H]3O[C@H]1C[C@H](N)[C@@H](O)[C@H](C)O1 :: 0.899
CCCCCCCCCCCC[C@H](C(=O)O)[C@@H](C)C(=O)O :: 0.995
CC(C)CCCC1(C)C=Cc2c(O)c3c(c(CCC(C)C)c2O1)OC12C(CC4CC1C(C)(C)OC2(CCC(C)C(=O)O)C4O)C3=O (stereo unspecified) :: 0.99
C#C[C@]1(O)CCC2C3CCC4=CC(=O)CC[C@@H]4C3CC[C@@]21CC (stereo partly specified) :: 0.993
O=C(O)CC(O)(CC(=O)O)C(=O)O :: 0.998
Nc1c2c(nc3ccccc13)CCCC2O (stereo unspecified) :: 1.01
COc1cccc2c1C(=O)c1c(O)c3c(c(O)c1C2=O)C[C@@](O)(C(C)=O)C[C@@H]3O[C@H]1C[C@H](N)[C@H](O)[C@H](C)O1 :: 0.945

* * *

Protocol notes: chemical genetic growth profiling, strain panel (AID 1159580);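 also: tested at 20 µM; growth read once vehicle control cultures reached saturation at 30 °C; 1 = growth at the plate median or of vehicle wells; lower values mean less growth of the strain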
Settings: S. cerevisiae deletion strains, growth OD, locus YAL040C, strain CLN3
The campaign covered roughly 5,500 compounds. About 2,000 (36%) were called active. About 18% were inconclusive and are not listed. No stated cut-off is given here; in the data, active means normalized growth mostly below about 0.91 (no sharp cut-off); inconclusive means no clear call, values can overlap the other calls; inactive means mostly above about 0.92. The list shows a part of the results.
Labels: Yes for active, No for inactive

COc1cc(-c2ccc(=O)[nH]n2)ccc1OC(F)F :: No
CC(=O)OCC(=O)[C@@]1(O)CC[C@H]2[C@@H]3CCC4=CC(=O)CC[C@]4(C)[C@H]3C(=O)C[C@@]21C :: No
Nc1ncnc2c1ncn2C1CCCC1 :: No
COc1cccc(OC)c1OCCNCC1COc2ccccc2O1 (configuration not stated) :: No
NCCc1ccc(S(=O)(=O)F)cc1 :: No
O=C(O)CCCCCC[C@H]1C(=O)NC(=O)N1CC[C@@H](O)C1CCCCC1 :: No
CN=c1nc(-c2ccccc2)n(-c2ccccc2)s1 :: No
O=C(O)C1CCCN(CCC=C(c2ccccc2)c2ccccc2)C1 (configuration not stated) :: No
FC(F)(F)c1ccccc1-n1ccnc1 :: No
Nc1c2c(nc3ccccc13)CCCC2 :: No
CC(C)(CO)Cc1cc(C(C)(C)C)c(O)c(C(C)(C)C)c1 :: No
N=C(N)SCCc1ccc(CCSC(=N)N)cc1 :: No
Clc1ccccc1C(c1ccccc1)(c1ccccc1)n1ccnc1 :: Yes
COc1ccc2[nH]c3c(c2c1)CCNC3 :: No
CC1=NS(=O)(=O)c2cc(Cl)ccc2N1 :: No
COC(=O)Nc1nc2ccc(C(=O)c3cccs3)cc2[nH]1 :: Yes
COc1ccc2c(c1)c(CC(=O)O)c(C)n2C(=O)c1ccc(Cl)cc1 :: No
C[C@@H]1O[C@@H](O[C@H]2C[C@@H](O)[C@]3(CO)[C@@H]4C(CC[C@]3(O)C2)[C@@]2(O)CC[C@H](C3COC(=O)C3)[C@@]2(C)C[C@H]4O)[C@H](O)[C@H](O)[C@H]1O (some centres not stated) :: No
CCNC(=O)C1OC(n2cnc3c(NCc4ccccc4)ncnc32)C(O)C1O (configuration not stated) :: No
Clc1cc(I)cc(Cl)c1NC1=NCCN1 :: No
NNc1nncc2ccccc12 :: No
c1cnc(N2CCN(Cc3ccc4c(c3)OCO4)CC2)nc1 :: No
CN1C2CCC1CC(NC(=O)c1nn(C)c3ccccc13)C2 (configuration not stated) :: No
NC(=O)c1cc[n+](CC2=C(C(=O)O)N3C(=O)[C@@H](NC(=O)[C@@H](c4ccccc4)S(=O)(=O)[O-])[C@H]3SC2)cc1 :: No
Nc1ncnc2c1nc(Sc1ccc(Cl)cc1)n2C1OC2COP(=O)(O)O[C@@H]2[C@@H]1O (some centres not stated) :: No
O=C1Cc2c([nH]c3ccc(Br)cc23)-c2ccccc2N1 :: No
NC(N)=NN=Cc1c(Cl)cccc1Cl :: No
OC(CCN1CCCCC1)(c1ccccc1)C1CCCCC1 (configuration not stated) :: No
CC1C(=O)N(C)C(=O)c2nc[nH]c21 (configuration not stated) :: No
CC(N)C1CCC(C(=O)Nc2ccncc2)CC1 (configuration not stated) :: No
O=c1c2ccccc2nc2n1CCc1c-2[nH]c2ccccc12 :: No
CNC(=O)Oc1ccc2c(c1)C1(C)CCN(C)C1N2C (configuration not stated) :: No
C/C(O)=C(\C#N)C(=O)Nc1cc(Br)ccc1Br :: No
CCCOc1ccccc1-c1nc2n[nH]nc2c(=O)[nH]1 :: No
Nc1ccc(S(=O)(=O)Nc2ccnn2-c2ccccc2)cc1 :: No
C[N+](C)(C)CCO :: No
N[C@H](C(=O)O)[C@H]1C[C@@H]1C(=O)O :: No
N[C@@H](Cc1c[nH]c2ccccc12)C(=O)O :: No
COc1ccc2c(c1)c(CC(=O)O)c(C)n2C(=O)c1ccccc1 :: No
CCCCCC(O)CCCC(=O)O (configuration not stated) :: No
Nc1ncnc2c1c(-c1ccc(Oc3ccccc3)cc1)cn2C1CCCC1 :: No
CCN(CC)c1ncnc2c1ncn2[C@@H]1O[C@H](COP(=O)(O)OP(=O)(O)C(Br)(Br)P(=O)(O)O)[C@@H](O)[C@H]1O :: No
